- studyTarget: unphosphorylated ABL1(T315I)(229-499) (Homo sapiens, UniProt P00519, T315I)
- Construct: The recombinant ABL1(T315I) (isoform 1a) residues 229-499 protein was designed with an N-terminal 10×His tag; made in house; host or cells: E. coli (co-expressed with YopH phosphatase and pGro7 chaperone)
- assayComment: SPR binding to unphosphorylated ABL1(T315I)(229-499)
- experimentalParameters: PBST buffer, Ni-NTA capture of 10xHis-tag, read-out: Unphosphorylated ABL1(T315I)(229-499) in PBST buffer KD
pKd: −log10 of the molar value.
property: pKd

[[record]]
cpdsmiles = "Nc1nc(N)c(N=O)c(OCC2CCCCC2)n1"
testresult = 5.30

